Assay: Pharmacokinetic comparison after 1-hour IV infusion, plasma concentrations by LC-MS/MS
Assay type: in vivo, male Sprague-Dawley rats
Conditions: male, Sprague-Dawley, plasma; rat, single 10 mg/kg 1-hour intravenous infusion, 2 hours after start of infusion

compound	concentration at 2 h
COc1cccc(OCCCN)c1-c1cc(Nc2cnc(C#N)cn2)n[nH]1.C[C@H](O)C(=O)O [(S)-Lactate Monohydrate]	217 ng/mL

---

Test: Pharmacokinetic comparison after 1-hour IV infusion, plasma concentrations by LC-MS/MS
Format: in vivo, male Sprague-Dawley rats
Details: male, Sprague-Dawley, plasma; rat, single 10 mg/kg 1-hour intravenous infusion, 8 hours after start of infusion

compound	concentration at 8 h, ng/mL
COc1cccc(OCCCN)c1-c1cc(Nc2cnc(C#N)cn2)n[nH]1.C[C@H](O)C(=O)O [(S)-Lactate Monohydrate]	28.6

---

Assay: Pharmacokinetic comparison after 1-hour IV infusion, plasma concentrations by LC-MS/MS
Format: in vivo, male Sprague-Dawley rats
Settings: male, Sprague-Dawley, in vivo; rat, single 10 mg/kg 1-hour intravenous infusion, 0.5 hours after start of infusion
parameter measured: concentration at 0.5 h (ng/mL)

molecule	assay value
COc1cccc(OCCCN)c1-c1cc(Nc2cnc(C#N)cn2)n[nH]1.CS(=O)(=O)O.O [Methanesulfonic acid Monohydrate]	1100

---

Test: Solubility screen of the salts in aqueous acid solution, HPLC
Format: physicochemical
Conditions: aqueous solution of the selected acid, aqueous buffer, thermodynamic from solid; water solubility comparison; slurry in approx. 0.1 M aqueous acid, room temperature, one week

compound	solubility at 1 week
COc1cccc(OCCCN)c1-c1cc(Nc2cnc(C#N)cn2)n[nH]1.C[C@H](O)C(=O)O [(S)-Lactate Monohydrate]	> 20 mg/mL

---

Experiment: Pharmacokinetic comparison after 1-hour IV infusion, plasma concentrations by LC-MS/MS
Type: in vivo, male Sprague-Dawley rats
Settings: male, Sprague-Dawley, plasma; rat, single 10 mg/kg 1-hour intravenous infusion, 0.25 hours after start of infusion

compound	unit symbol	concentration at 0.25 h
COc1cccc(OCCCN)c1-c1cc(Nc2cnc(C#N)cn2)n[nH]1.C[C@H](O)C(=O)O [(S)-Lactate Monohydrate]	ng/mL	1110

---

Experiment: Pharmacokinetic comparison after 1-hour IV infusion, plasma concentrations by LC-MS/MS
Format: in vivo, male Sprague-Dawley rats
Conditions: male, Sprague-Dawley, plasma; rat, single 10 mg/kg 1-hour intravenous infusion, 0.5 hours after start of infusion
parameter measured: concentration at 0.5 h (ng/mL)

molecule	assay value
COc1cccc(OCCCN)c1-c1cc(Nc2cnc(C#N)cn2)n[nH]1.C[C@H](O)C(=O)O [(S)-Lactate Monohydrate]	1180

---

Assay: Pharmacokinetic comparison after 1-hour IV infusion, plasma concentrations by LC-MS/MS
Format: in vivo, male Sprague-Dawley rats
Settings: male, Sprague-Dawley, plasma; rat, single 10 mg/kg 1-hour intravenous infusion, 1.5 hours after start of infusion
parameter measured: concentration at 1.5 h (µg/mL)

compound	assay value
COc1cccc(OCCCN)c1-c1cc(Nc2cnc(C#N)cn2)n[nH]1.C[C@H](O)C(=O)O [(S)-Lactate Monohydrate]	0.283

---

Assay: Pharmacokinetic comparison after 1-hour IV infusion, plasma concentrations by LC-MS/MS
Assay type: in vivo, male Sprague-Dawley rats
Conditions: male, Sprague-Dawley, in vivo; rat, single 10 mg/kg 1-hour intravenous infusion, 0.25 hours after start of infusion
parameter measured: concentration at 0.25 h (ng/mL)

molecule	assay value
COc1cccc(OCCCN)c1-c1cc(Nc2cnc(C#N)cn2)n[nH]1.CS(=O)(=O)O.O [Methanesulfonic acid Monohydrate]	1060
